Origin of the recorded values: PubChem BioAssay AID248

Below: a set of entries, each annotated with reported T/C.
Test system: L1210 leukemia ip in BDF1 mice, survival T/C
Test: NCI In Vivo Anticancer Drug Screen. Data for tumor model L1210 Leukemia (intraperitoneal) in B6D2F1 (BDF1) mice
Details: endpoint: mean survival time; dose: 100.0 mg/kg/injection; schedule: Q01DX001 (ip); vehicle: saline with Tween-80; higher = longer survival
Inconclusive results and toxic doses are left out.

{"Compound": "C#CC1(OC(=O)NS(=O)(=O)c2ccc(C)cc2)CCCCC1", "Parameter measured": "T/C", "Result": "97 % of control"}
{"Compound": "COc1ccc(OC)c(C(Nc2ccc3cn[nH]c3c2)P(=O)(c2ccccc2)c2ccccc2)c1 (centres undefined)", "Parameter measured": "T/C", "Result": "93 % of control"}
{"Compound": "O=C(O)c1ccccc1C(=O)Nc1ccccc1[N+](=O)[O-]", "Parameter measured": "T/C", "Result": "91 % of control"}

Proceed to the following item.
Short answer please: T/C, L1210 leukemia ip in BDF1 mice, survival T/C, entry `C/C(=N\Nc1c(F)c(F)c(F)c(F)c1F)c1ccccc1`
105 % of control

---

Below: a set of entries, each annotated with reported T/C.
System: L1210 leukemia ip in BDF1 mice, survival T/C
Test: NCI In Vivo Anticancer Drug Screen. Data for tumor model L1210 Leukemia (intraperitoneal) in B6D2F1 (BDF1) mice
Conditions: endpoint: mean survival time; dose: 400.0 mg/kg/injection; schedule: Q01DX009 (ip); vehicle: saline; higher = longer survival
Inconclusive results and toxic doses are left out.

Some solved entries appear below for comparison.
{"Molecule": "CCN(CC)C(=O)NC1CCCN1C (stereo not given)", "T/C": "109 % of control"}
{"Molecule": "O=c1[nH]nc(CCc2ccc([N+](=O)[O-])cc2)o1", "T/C": "104 % of control"}
{"Molecule": "CC(=O)CC(=O)NCc1cccnc1", "T/C": "98 % of control"}
{"Molecule": "OCCC#CCCCO", "T/C": "88 % of control"}
{"Molecule": "CCOC(=O)c1ccc(OC)nc1", "T/C": "98 % of control"}

What measured T/C goes with `COc1ccccc1P(c1ccccc1OC)c1ccccc1OC` ?
98 % of control

What measured T/C goes with `COC(CN(C)CC(OC)OC)OC` ?
98 % of control

What measured T/C goes with `C1CN(CCN2CCOCC2)CCO1` ?
96 % of control

What measured T/C goes with `Cn1c[n+](C)cc1C(=O)[O-]` ?
95 % of control

What measured T/C goes with `CSc1cccc[n+]1[O-]` ?
101 % of control

What measured T/C goes with `CN(C)C(=N)C(=N)N(C)C` ?
94 % of control

---

Tested on: L1210 leukemia ip in BDF1 mice, survival T/C
Test: NCI In Vivo Anticancer Drug Screen. Data for tumor model L1210 Leukemia (intraperitoneal) in B6D2F1 (BDF1) mice
Conditions: endpoint: mean survival time; dose: 12.5 mg/kg/injection; schedule: Q04DX003 (ip); vehicle: saline with Tween-80; higher = longer survival
Toxic doses and inconclusive results are not listed.
Parameter measured: T/C

Some solved entries appear below for comparison.
{"Structure notation": "N#Cc1nc2nc(C(F)(F)F)[nH]c2nc1C#N", "Measurement target": "L1210 leukemia ip in BDF1 mice, survival T/C", "Parameter measured": "T/C", "Result": "120 % of control"}
{"Structure notation": "OCCC(c1ccccc1)(c1ccccc1)c1ccccc1", "Measurement target": "L1210 leukemia ip in BDF1 mice, survival T/C", "Parameter measured": "T/C", "Result": "100 % of control"}
{"Structure notation": "O=[N+]([O-])c1ccc(N2CCOCC2)c2c1no[n+]2[O-]", "Measurement target": "L1210 leukemia ip in BDF1 mice, survival T/C", "Parameter measured": "T/C", "Result": "108 % of control"}

Proceed to the following item.
What measured T/C goes with `COc1ccc(C=NCCN=Cc2ccc(OC)cc2OC)c(OC)c1` ?
91 % of control
